// data source = ChEMBL document CHEMBL3351526

assay: Stability in rat liver microsomes assessed as intrinsic clearance; type: ADME; conditions: read-out: CLH
Rule: microsomal CLint of 100 µL/min/mg or more gives satisfied; anything lower gives not satisfied.

Query: Check this compound for microsomal CLint at or above 100 µL/min/mg: COc1cc(CNC(=O)[C@@H](CC2CCCCC2)NC(=N)NC(=O)Cc2ccc(OC)c(OC)c2)ccc1F
Reply: satisfied

Query: Check this compound for microsomal CLint at or above 100 µL/min/mg: COc1cc(Br)c(CC(=O)NC(=N)N[C@H](CC(C)C)C(=O)NCc2cccc(-c3nnn[nH]3)c2)cc1OC
Reply: not satisfied

Query: Check this compound for microsomal CLint at or above 100 µL/min/mg: COc1cc(CNC(=O)[C@@H](CC(C)C)NC(=N)NC(=O)Cc2ccc(OC)c(OC)c2)ccc1F
Reply: satisfied

Query: Check this compound for microsomal CLint at or above 100 µL/min/mg: COc1cc(Br)c(CC(=O)NC(=N)N[C@H](CC2CCCCC2)C(=O)NCc2cccc(-c3nnn[nH]3)c2)cc1OC
Reply: not satisfied

Query: Check this compound for microsomal CLint at or above 100 µL/min/mg: COc1ccc(CNC(=O)[C@@H](Cc2ccccc2)NC(=N)NC(=O)Cc2ccc(OC)c(OC)c2)cc1OC
Reply: satisfied

Query: Check this compound for microsomal CLint at or above 100 µL/min/mg: COc1cc(CNC(=O)[C@@H](CC2CCCCC2)NC(=N)NC(=O)Cc2cc(OC)c(OC)cc2Br)ccc1F
Reply: satisfied

Query: Check this compound for microsomal CLint at or above 100 µL/min/mg: COc1ccc(CNC(=O)[C@@H](CC(C)C)NC(=N)NC(=O)Cc2ccc(OC)c(OC)c2)cc1OC
Reply: satisfied

Query: Check this compound for microsomal CLint at or above 100 µL/min/mg: COc1ccc(CC(=O)NC(=N)N[C@H](CC(C)C)C(=O)NCc2ccc(-c3nnn[nH]3)cc2)cc1OC
Reply: not satisfied

Query: Check this compound for microsomal CLint at or above 100 µL/min/mg: COc1ccc(CC(=O)NC(=N)N[C@H](CC2CCCCC2)C(=O)NCc2ccc(-c3nnn[nH]3)cc2)cc1OC
Reply: not satisfied

Query: Check this compound for microsomal CLint at or above 100 µL/min/mg: COc1ccc(CC(=O)NC(=N)N[C@H](CC(C)C)C(=O)NCc2ccc(-c3nnn[nH]3)c(F)c2)cc1OC
Reply: not satisfied
